test system: WPMY1-TUBA1B-RELA; test: phenotypically active (imaging signature differs from DMSO and reproducible) at any of 0.3-9 uM (binary (1 = active, 0 = inactive)); higher = active; conditions: treatment time: 24 h
Where a name gives a salt, the structure may show the parent alone.
Classes used: Y = active, N = inactive

>  <molecule>
O[C@H](CNC[C@H](O)[C@@H]1CCc2cc(F)ccc2O1)[C@@H]1CCc2cc(F)ccc2O1

>  <discrete.label>
Y

$$$$
>  <molecule>
Cn1cc(-c2cnc3ccc4ccc(CS(=O)(=O)NCc5ccccn5)cc4c(=O)c3c2)cn1

>  <discrete.label>
N

$$$$
>  <molecule>
CO/N=C/C1=CCCN(C)C1 [Milameline hydrochloride]

>  <discrete.label>
N

$$$$
>  <molecule>
O=C1N=C(NCc2cccs2)S/C1=C\c1ccc2ncccc2c1

>  <discrete.label>
Y

$$$$
>  <molecule>
Cc1nc(NC(=O)N2CCC[C@H]2C(N)=O)sc1-c1csc(C(C)(C)C)n1

>  <discrete.label>
N

$$$$
>  <molecule>
CC(C)N(CCC(=O)c1ccc2ccccc2c1)Cc1ccccc1

>  <discrete.label>
N

$$$$
>  <molecule>
C[N+]1(C)CCC(=C(c2ccccc2)c2ccccc2)CC1

>  <discrete.label>
N

$$$$
>  <molecule>
O=C([C@@H](Cc1cccc(C(F)(F)F)c1)NS(=O)(=O)c1cc(F)c2c(c1)CCNC2)N1CCCC1 [(R)-PFI 2 hydrochloride]

>  <discrete.label>
N

$$$$
>  <molecule>
Cc1c(NC(=O)OC[C@@H]2COCCN2)cn2ncnc(Nc3ccc4c(cnn4Cc4cccc(F)c4)c3)c12

>  <discrete.label>
Y

$$$$
>  <molecule>
COc1cc(C[C@H]2C(=O)OC[C@@H]2Cc2ccc(OC)c(OC)c2)ccc1O

>  <discrete.label>
N

$$$$
>  <molecule>
COc1ccc(Cn2ccc3ccc(C(=O)NO)cc32)cc1

>  <discrete.label>
N

$$$$
>  <molecule>
Nc1cc(N)c(N)cc1N

>  <discrete.label>
Y

$$$$
>  <molecule>
O=C(Nc1cccc(Cl)c1)Nc1ncc(CCNc2ncnc3ccsc23)s1 [SNS 314 mesylate]

>  <discrete.label>
Y

$$$$
>  <molecule>
Nc1ncnc(Nc2ccc(OCc3ccccc3)c(Cl)c2)c1/C=N/OCCN1CCOCC1

>  <discrete.label>
N

$$$$
>  <molecule>
Cc1[nH]c(=O)c(C#N)cc1-c1ccncc1

>  <discrete.label>
N

$$$$
>  <molecule>
Cc1ccc(Nc2nccc(N(C)c3ccc4c(C)n(C)nc4c3)n2)cc1S(N)(=O)=O

>  <discrete.label>
Y

$$$$
>  <molecule>
CC1Cc2ccccc2N1NC(=O)c1ccc(Cl)c(S(N)(=O)=O)c1 (configuration not stated) [indapamide]

>  <discrete.label>
N

$$$$
>  <molecule>
O=C(CCCCCCC(=O)Nc1cccnc1)NO [Pyroxamide]

>  <discrete.label>
Y

$$$$
>  <molecule>
CC[C@]1(O)C[C@@H]2CN(CCc3c([nH]c4ccccc34)[C@@](C(=O)OC)(c3cc4c(cc3OC)N(C=O)[C@H]3[C@@](O)(C(=O)OC)[C@H](OC(C)=O)[C@]5(CC)C=CCN6CC[C@]43[C@@H]65)C2)C1

>  <discrete.label>
Y

$$$$
>  <molecule>
C[C@H]1C[C@@H]2[C@H]([C@@H](O)C[C@@]3(C)[C@H]2CC[C@]3(O)C(=O)CO)[C@@]2(C)C=CC(=O)C=C12

>  <discrete.label>
N

$$$$
>  <molecule>
CC(C)(C)c1ccc2cc(C#N)c(C#N)cc2c1

>  <discrete.label>
N

$$$$
>  <molecule>
CCN(CC)CCNC(=O)c1cc(Cl)c(N)cc1OC [metoclopramide]

>  <discrete.label>
N

$$$$
>  <molecule>
CCCS(=O)(=O)Nc1ccc(F)c(C(=O)c2c[nH]c3ncc(Cl)cc23)c1F

>  <discrete.label>
N

$$$$
>  <molecule>
CCCCC1=NC2(CCCC2)C(=O)N1Cc1ccc(-c2ccccc2-c2nnn[nH]2)cc1

>  <discrete.label>
N

$$$$
>  <molecule>
Nc1ncnc2c1c(-c1cnc3[nH]ccc3c1)nn2C1CCCC1

>  <discrete.label>
Y

$$$$
>  <molecule>
CCCOc1ccc(CCc2nc3cc(-c4c(C)noc4C)ccc3n2CCN2CCOCC2)cc1

>  <discrete.label>
N

$$$$
>  <molecule>
Cc1cccc(Nc2ccccc2C(=O)O)c1C

>  <discrete.label>
N

$$$$
>  <molecule>
CCCNC(=O)NS(=O)(=O)c1ccc(Cl)cc1 [chlorpropamide]

>  <discrete.label>
N

$$$$
>  <molecule>
CCCc1nc2c(C)cc(-c3nc4ccccc4n3C)cc2n1Cc1ccc(-c2ccccc2C(=O)O)cc1

>  <discrete.label>
N

$$$$
>  <molecule>
O=C(NOC[C@H](O)CO)c1ccc(F)c(F)c1Nc1ccc(I)cc1F

>  <discrete.label>
N

$$$$
>  <molecule>
CCOC(=O)Nc1ccc2c(c1)N(C(=O)CCN1CCOCC1)c1ccccc1S2

>  <discrete.label>
N

$$$$
>  <molecule>
C#C[C@]1(O)CC[C@H]2[C@@H]3CCC4=CCCC[C@@H]4[C@H]3C(=C)C[C@@]21CC

>  <discrete.label>
N

$$$$
>  <molecule>
O=c1[nH]cc(F)c(=O)[nH]1

>  <discrete.label>
N

$$$$
>  <molecule>
CN([C@H]1c2cc(OCCCC(F)(F)F)ccc2OC(C)(C)[C@@H]1O)S(C)(=O)=O

>  <discrete.label>
N

$$$$
>  <molecule>
Nc1nc(S)c2[nH]cnc2n1

>  <discrete.label>
Y

$$$$
>  <molecule>
NCCC(O)(P(=O)(O)O)P(=O)(O)O [pamidronate]

>  <discrete.label>
N

$$$$
>  <molecule>
CCCCCCCCCCCCc1ccc(S(=O)(=O)Nc2nncs2)cc1

>  <discrete.label>
N

$$$$

meta.source: the supplement of paper PMC7411054
